Just for reference, patent US20240261224A1 is where these values come from.

METHOD_SUMMARY: Phase 1 Part 2 plasma pharmacokinetics (mild asthma)
Type: in vivo, human
MEASUREMENT_CONTEXT: human, plasma, inhaled, 4 mg, 4 mg BID, Day 10, read-out: AUCover dosing interval Mean
QUANTITY_NAME: AUC (ng·h/mL)
Could you give me the number in ng·h/mL? Just the number is fine.

Supply reported AUC belonging to this molecule: Cn1c(=O)n([C@H]2CCCN(C(=O)CC#N)C2)c2nc(-c3cnn4ccccc34)ccc21
237

* * *

METHOD_SUMMARY: Phase 1 Part 2 plasma pharmacokinetics (mild asthma)
Assay type: in vivo, human
MEASUREMENT_CONTEXT: human, plasma, inhaled, 2 mg, 2 mg QD, Day 10, read-out: Cmax Geometric mean
Text: Day 10 pharmacokinetic parameters for Parts 2 and 3 of Phase I are summarized below in Table 28. Part 2 involved the administration of 4 different dose regimens, to subjects with mild asthma naïve to ICS therapy, over a 10-day period. Each separate cohort comprised 6 subjects receiving active treatment with 2 receiving matching placebo. Blood samples were collected to enable the measurement of Compound I concentrations in plasma. […]
QUANTITY_NAME: Cmax (ng/mL)
Could you give me the number in ng/mL? Just the number is fine.

Supply reported Cmax belonging to this compound: Cn1c(=O)n([C@H]2CCCN(C(=O)CC#N)C2)c2nc(-c3cnn4ccccc34)ccc21
6.19

* * *

METHOD_SUMMARY: Phase 1 Part 2 plasma pharmacokinetics (mild asthma)
Format: in vivo, human
MEASUREMENT_CONTEXT: human, plasma, inhaled, 4 mg, 4 mg BID, Day 10, read-out: AUC0-12 hours Mean
QUANTITY_NAME: AUC0-12h (ng·h/mL)
Could you give me the number in ng·h/mL? Just the number is fine.

Supply reported AUC0-12h belonging to this compound: Cn1c(=O)n([C@H]2CCCN(C(=O)CC#N)C2)c2nc(-c3cnn4ccccc34)ccc21
237

* * *

METHOD_SUMMARY: Phase 1 Part 3 plasma pharmacokinetics (moderate to severe asthma)
Format: in vivo, human
MEASUREMENT_CONTEXT: human, plasma, inhaled, 4 mg, 4 mg BID, Day 10, read-out: Cmax Mean
QUANTITY_NAME: Cmax (ng/mL)
Could you give me the number in ng/mL? Just the number is fine.

Supply reported Cmax belonging to this compound: Cn1c(=O)n([C@H]2CCCN(C(=O)CC#N)C2)c2nc(-c3cnn4ccccc34)ccc21 [Compound I]
37.5

* * *

METHOD_SUMMARY: 13-week inhalation toxicology study, rat model
Format: in vivo
MEASUREMENT_CONTEXT: rat, in vivo, inhaled or intranasal, 12 mg/kg/day, AUC0-24
QUANTITY_NAME: AUC(0-t) (ng·h/mL)
Could you give me the number in ng·h/mL? Just the number is fine.

Supply reported AUC(0-t) belonging to this compound: Cn1c(=O)n([C@H]2CCCN(C(=O)CC#N)C2)c2nc(-c3cnn4ccccc34)ccc21 [Compound I]
2060

* * *

METHOD_SUMMARY: 13-week inhalation toxicology study, NHP model
Format: in vivo
MEASUREMENT_CONTEXT: monkey, in vivo, inhaled or intranasal, 0.9 mg/kg/day, NHP, inhaled 0.9 mg/kg/day, Week 13; read-out: AUC0-24
Procedure: Lactose/MgSt-based formulations of Compound I were evaluated during a 13-week inhalation toxicology study in an NHP model, and the corresponding results are presented in Table 16 below. […] The NOAEL was assigned to the highest dose study (7.9 mg/kg/day).
QUANTITY_NAME: AUC(0-t) (ng·h/mL)
Could you give me the number in ng·h/mL? Just the number is fine.

Supply reported AUC(0-t) belonging to this molecule: Cn1c(=O)n([C@H]2CCCN(C(=O)CC#N)C2)c2nc(-c3cnn4ccccc34)ccc21 [Compound I]
167

* * *

METHOD_SUMMARY: Phase 1 Part 2 plasma pharmacokinetics (mild asthma)
Format: in vivo, human
MEASUREMENT_CONTEXT: human, plasma, inhaled, 8 mg, 8 mg BID, Day 10, read-out: AUC0-∞ Geometric mean
QUANTITY_NAME: AUC(0-inf)

Supply reported AUC(0-inf) belonging to this compound: Cn1c(=O)n([C@H]2CCCN(C(=O)CC#N)C2)c2nc(-c3cnn4ccccc34)ccc21
664 ng·h/mL

* * *

METHOD_SUMMARY: Phase 1 Part 2 plasma pharmacokinetics (mild asthma)
Assay type: in vivo, human
MEASUREMENT_CONTEXT: human, plasma, inhaled, 8 mg, 8 mg BID, Day 10, read-out: AUC0-24 hours Geometric mean
QUANTITY_NAME: AUC(0-t)
# answer = value followed by unit

Supply reported AUC(0-t) belonging to this molecule: Cn1c(=O)n([C@H]2CCCN(C(=O)CC#N)C2)c2nc(-c3cnn4ccccc34)ccc21
545 ng·h/mL

* * *

METHOD_SUMMARY: Phase 1 Part 2 plasma pharmacokinetics (mild asthma)
Assay type: in vivo, human
MEASUREMENT_CONTEXT: human, plasma, inhaled, 0.6 mg, 0.6 mg QD, Day 10, read-out: AUC0-24 hours Mean
Description: Day 10 pharmacokinetic parameters for Parts 2 and 3 of Phase I are summarized below in Table 28. Part 2 involved the administration of 4 different dose regimens, to subjects with mild asthma naïve to ICS therapy, over a 10-day period. Each separate cohort comprised 6 subjects receiving active treatment with 2 receiving matching placebo. Blood samples were collected to enable the measurement of Compound I concentrations in plasma. […]
QUANTITY_NAME: AUC(0-t) (ng·h/mL)
Could you give me the number in ng·h/mL? Just the number is fine.

Supply reported AUC(0-t) belonging to this compound: Cn1c(=O)n([C@H]2CCCN(C(=O)CC#N)C2)c2nc(-c3cnn4ccccc34)ccc21
22.5

* * *

METHOD_SUMMARY: Phase 1 Part 2 plasma pharmacokinetics (mild asthma)
Type: in vivo, human
MEASUREMENT_CONTEXT: human, plasma, inhaled, 2 mg, 2 mg QD, Day 10, read-out: AUC0-last non-zero Mean
QUANTITY_NAME: AUC(0-t) (ng·h/mL)
Could you give me the number in ng·h/mL? Just the number is fine.

Supply reported AUC(0-t) belonging to this molecule: Cn1c(=O)n([C@H]2CCCN(C(=O)CC#N)C2)c2nc(-c3cnn4ccccc34)ccc21
87.4

* * *

METHOD_SUMMARY: Phase 1 Part 2 plasma pharmacokinetics (mild asthma)
Assay type: in vivo, human
MEASUREMENT_CONTEXT: human, plasma, inhaled, 2 mg, 2 mg QD, Day 10, read-out: AUCover dosing interval Geometric mean
QUANTITY_NAME: AUC (ng·h/mL)
Could you give me the number in ng·h/mL? Just the number is fine.

Supply reported AUC belonging to this molecule: Cn1c(=O)n([C@H]2CCCN(C(=O)CC#N)C2)c2nc(-c3cnn4ccccc34)ccc21
71.9

* * *

METHOD_SUMMARY: Phase 1 Part 2 plasma pharmacokinetics (mild asthma)
Format: in vivo, human
MEASUREMENT_CONTEXT: human, plasma, inhaled, 2 mg, 2 mg QD, Day 10, read-out: Cmax Mean
QUANTITY_NAME: Cmax (ng/mL)
Could you give me the number in ng/mL? Just the number is fine.

Supply reported Cmax belonging to this compound: Cn1c(=O)n([C@H]2CCCN(C(=O)CC#N)C2)c2nc(-c3cnn4ccccc34)ccc21
6.46

* * *

METHOD_SUMMARY: 13-week inhalation toxicology study, rat model
Assay type: in vivo
MEASUREMENT_CONTEXT: rat, in vivo, inhaled or intranasal, 4 mg/kg/day, AUC0-24
QUANTITY_NAME: AUC(0-t)

Supply reported AUC(0-t) belonging to this compound: Cn1c(=O)n([C@H]2CCCN(C(=O)CC#N)C2)c2nc(-c3cnn4ccccc34)ccc21 [Compound I]
850 ng·h/mL

* * *

METHOD_SUMMARY: 13-week inhalation toxicology study, NHP model
Type: in vivo
MEASUREMENT_CONTEXT: monkey, in vivo, inhaled or intranasal, 8 mg/kg/day, NHP, inhaled 8.0 mg/kg/day, Day 1; read-out: AUC0-24
Experimental: Lactose/MgSt-based formulations of Compound I were evaluated during a 13-week inhalation toxicology study in an NHP model, and the corresponding results are presented in Table 16 below. […] The NOAEL was assigned to the highest dose study (7.9 mg/kg/day).
QUANTITY_NAME: AUC(0-t) (ng·h/mL)
Could you give me the number in ng·h/mL? Just the number is fine.

Supply reported AUC(0-t) belonging to this compound: Cn1c(=O)n([C@H]2CCCN(C(=O)CC#N)C2)c2nc(-c3cnn4ccccc34)ccc21
903

* * *

METHOD_SUMMARY: 13-week inhalation toxicology study, NHP model
Format: in vivo
MEASUREMENT_CONTEXT: non-human primate (NHP), in vivo, inhaled or intranasal; NHP, 13-week inhalation, highest dose
QUANTITY_NAME: NOAEL at 13 weeks

Supply reported NOAEL at 13 weeks belonging to this compound: Cn1c(=O)n([C@H]2CCCN(C(=O)CC#N)C2)c2nc(-c3cnn4ccccc34)ccc21 [Compound I]
7.9 mg/kg/day
